Tested on: RXF 393 renal
assay.method.text: NCI-60 one-dose screen, 48 h (100 = growth as untreated, 0 = no growth, -100 = all killed)
protocol.conditions: 10 µM unless noted
The panel holds about 83,000 compounds, 20% with a hit somewhere; the sample as a whole holds those more often.
Values of growth strictly less than 20% map to met, and values of at least 20% map to not met.

Answered cases to consult:
COc1ccc(OC)c(Nc2nc3nonc3nc2Nc2cc(OC)ccc2OC)c1    met
N#Cc1c(-c2ccc(C(F)(F)F)cc2)cc(N2CC(O)C2)n2c1nc1ccccc12    not met
CCc1cc(Cc2cc(CC)cc(C(C)(C)C)c2O)c(O)c(C(C)(C)C)c1    met
Nc1c(-c2nc3ccc(Br)cc3c(=O)[nH]2)nnn1-c1ccccc1    not met
Cc1nc2ccc(C(=O)NCc3cc(C(=O)O)c(C)o3)cc2nc1C    not met

Prompt: growth strictly < 20% for this compound? "Cc1cc(N2CCCCC2)nc(N(CCNc2ccnc3cc(Cl)ccc23)Cc2ccccn2)n1"
Response: not met

Prompt: Quick check: does C=C(C)[C@@H]1CC[C@]2(CN)CC[C@]3(C)[C@H](CC[C@@H]4[C@@]5(C)CCC(N)[C@@](C)(CO)[C@@H]5CC[C@]43C)[C@@H]12 (stereo partly drawn) have growth under 20%?
Response: not met
